Values compiled from patent US4570005A.

Test: Test 8: Fish Toxicity
Assay type: in vivo
Settings: carp, water; concentration at which 1/2 of the test fishes were killed within 48 hours; read-out: Fish Toxicity, TLm48
I'd appreciate it if you could supply LC50 at 48 h values for the items below.

Reported LC50 at 48 h of `CC(C)(COCc1cccc(Sc2ccccc2)c1)c1ccc(Cl)cc1` : > 10 µg/mL

Reported LC50 at 48 h of `COc1ccc(Oc2cccc(COCC(C)(C)c3ccc(SC)cc3)c2)cc1` : > 10 µg/mL

Reported LC50 at 48 h of `CC(C)(COCc1cccc(Oc2ccccc2)c1)c1ccc(Cl)c(Cl)c1` : > 10 µg/mL

Reported LC50 at 48 h of `COc1ccc(Oc2cccc(COCC(C)(C)c3ccccc3)c2)cc1` : > 10 µg/mL

Reported LC50 at 48 h of `CC(C)(COCc1cccc(C(=O)c2ccccc2)c1)c1ccc(Cl)cc1` : > 10 µg/mL

Reported LC50 at 48 h of `CC(C)(COCc1coc(Cc2ccccc2)c1)c1ccc(Cl)cc1` : > 10 µg/mL

Reported LC50 at 48 h of CCC(C)(COCc1cccc(Oc2ccccc2)c1)c1ccc(Cl)c(Cl)c1 (stereo not shown) : > 10 µg/mL

Reported LC50 at 48 h of `CSc1ccc(C(C)(C)COCc2cccc(Oc3ccccc3)c2)cc1` : > 10 µg/mL

Reported LC50 at 48 h of `Cc1ccc(C(C)(C)COCc2cccc(Oc3ccc(Br)cc3)c2)cc1` : > 10 µg/mL

Reported LC50 at 48 h of `Cc1ccc(C(C)(C)COCc2cccc(Oc3ccccc3)c2)cc1Cl` : > 10 µg/mL

Reported LC50 at 48 h of `CC(C)(C)c1ccc(C(C)(C)COCc2cccc(Oc3ccccc3)c2)cc1` : > 1 µg/mL

Reported LC50 at 48 h of `CC(C)(COCc1cccc(Oc2ccc(Br)cc2)c1)c1ccc(Cl)c(Cl)c1` : > 10 µg/mL

Reported LC50 at 48 h of `Cc1ccc(C(C)(C)COCc2cccc(Oc3ccccc3)c2)cc1` : > 10 µg/mL

Reported LC50 at 48 h of CCC(C)(COCc1cccc(Oc2ccccc2)c1)c1ccc(Cl)cc1 (stereo not shown) : > 10 µg/mL

Reported LC50 at 48 h of `CCCCCOc1ccc(C(C)(C)COCc2cccc(Oc3ccccc3)c2)cc1` : > 1 µg/mL

Reported LC50 at 48 h of `Cc1ccc(Oc2cccc(COCC(C)(C)c3ccc(Cl)cc3)c2)cc1` : > 10 µg/mL

Reported LC50 at 48 h of `CC(C)(COCc1cccc(Oc2ccc(F)cc2)c1)c1ccc(F)cc1` : > 1 µg/mL

Reported LC50 at 48 h of `CC(C)(COCc1cccc(Oc2ccc(F)cc2)c1)c1ccc(OC(F)F)cc1` : 0.01 to 0.05 µg/mL

Reported LC50 at 48 h of `CC(C)(COCc1cccc(Oc2ccccc2)c1)c1ccc2c(c1)OCO2` : > 10 µg/mL

----------
I'd appreciate it if you could supply mortality at 20 ppm values for the items below.
System: sensitive green rice leafhopper (collected at Chigasaki)
Assay: whole plant or invertebrate
Format: in vivo
Conditions: Nephotettix cincticeps; 20 ppm; sensitive female adults; 24 hours; read-out: Mortality (%), Green Rice Leafhopper Collected at Chigasaki
Give the value in % but do not write % after it.

Reported mortality at 20 ppm of CC(C)(COCc1cccc(Oc2ccccc2)c1)c1cc(Cl)cc(Cl)c1 [Compound 56] : 90

Reported mortality at 20 ppm of Cc1cccc(C(C)(C)COCc2cccc(Oc3ccc(F)cc3)c2)c1 [Compound 36] : 70

Reported mortality at 20 ppm of CC(C)(COCc1cccc(Oc2ccc(F)cc2)c1)c1ccccc1 [Compound 28] : 75

Reported mortality at 20 ppm of CC(C)(COCc1cccc(Oc2ccccc2)c1)c1ccc(I)cc1 [Compound 65] : 100

Reported mortality at 20 ppm of COc1ccc(C(C)(C)COCc2cccc(Oc3ccccc3)c2)cc1OC [Compound 88] : 60

Reported mortality at 20 ppm of Cc1ccc(C(C)(C)COCc2cccc(Oc3ccccc3)c2)cc1C [Compound 109] : 70

Reported mortality at 20 ppm of CCOc1ccc(C(C)(CC)COCc2cccc(Oc3ccccc3)c2)cc1 (stereo not drawn) [Compound 103] : 100

Reported mortality at 20 ppm of CC(C)(COCc1cccc(Oc2ccccc2)c1)c1ccc(Br)cc1 [Compound 107] : 100

Reported mortality at 20 ppm of COc1ccc(Oc2cccc(COCC(C)(C)c3ccc(C)cc3)c2)cc1 [Compound 44] : 80
